Please find below IC50 data on Adenosine receptor A2a (Homo sapiens, UniProt P29274) compiled from the literature.

Solved cases below.
| compound | experimental-endpoint | result-value |
| --- | --- | --- |
| CCNC(=O)C1CCN(C(=O)c2nc(N[C@@H](C)c3cncc(F)c3)nc3nc(C)sc23)C1 (stereo partly shown) | IC50 | > 1000 nM |
| O=c1ccc2nc(-c3cc(Cl)c4ncccc4c3)c(-c3ccccc3)nc2[nH]1 | IC50 | 6.6 nM |
| CC(NC(=O)c1nc(-c2ccc3ncccc3c2)c(-c2ccccc2)nc1N)c1cccc(C#N)n1 (stereo not shown) | IC50 | 3.9 nM |
| Cc1nc2cc(NC(=O)OC(C)(C)C)nc(-c3ccc(S(C)(=O)=O)cc3)n2n1 | IC50 | > 1000 nM |
| Cc1nc2c3nc(C(F)(F)F)[nH]c3nc(-c3ccco3)n2n1 | IC50 | > 1000 nM |

Reported Adenosine receptor A2a (Homo sapiens, UniProt P29274) IC50 for item Cc1nc2nc(N[C@@H](C)c3cncc(F)c3)nc(C(=O)N3CCN(C(=O)NC(C)(C)C)C3)c2s1 was 100 to 1000 nM

Reported Adenosine receptor A2a (Homo sapiens, UniProt P29274) IC50 for item Cc1nc2c(-c3ccccc3)nc(N)c(Br)n2n1 was < 10 nM

Reported Adenosine receptor A2a (Homo sapiens, UniProt P29274) IC50 for item C[C@@H](NC(=O)c1nc(-c2ccc3ncccc3c2)c(-c2ccccc2)nc1N)c1ncccn1 was 1.2 nM

Reported Adenosine receptor A2a (Homo sapiens, UniProt P29274) IC50 for item Cc1nc2c3cccnc3nc(-c3ccc(C)o3)n2n1 was > 1000 nM

Reported Adenosine receptor A2a (Homo sapiens, UniProt P29274) IC50 for item Cc1nc2nc(N[C@@H](C)c3ccccn3)nc(C(=O)N3CC(NC(=O)C(C)(C)C)C3)c2s1 was < 100 nM
